Overview of recorded MIC for various compounds
- Test system: P. aeruginosa 1226072
- Format: cell-based, Pseudomonas aeruginosa
- statedConditions: 1226072, 20 h
Where a SMILES comes first, the peptide text is derived from it. [ ]: non-standard residue; d: D form. The star is where a group is joined. d(aIle) = CC[C@H](C)[C@@H](N)C(=O)O; dDab = NCC[C@@H](N)C(=O)O; Octanoyl = CCCCCCCC(=O)*; Dab = NCC[C@H](N)C(=O)O

CCCCCCCC(=O)N[C@@H](C(=O)N[C@H](CCN)C(=O)NCC(=O)N[C@H](CO)C(=O)N[C@H](Cc1c[nH]c2ccccc12)C(=O)N[C@@H](CO)C(=O)N[C@@H](CCN)C(=O)N[C@H](CCN)C(=O)N[C@@H](CCN)C(=O)N[C@@H](CCC(=O)O)C(=O)N[C@H](C(=O)N[C@@H](C(=O)N[C@@H](C)C(=O)O)[C@@H](C)CC)C(C)C)C(C)C [Oct-Dab9] (Octanoyl-[dV][dDab]G[dS][dW]S[Dab][dDab][Dab]EV[d(aIle)]A-OH)	8 µg/mL

Next:
Query CCCCCCCC(=O)N[C@@H](C(=O)N[C@H](CCN)C(=O)NCC(=O)N[C@H](CO)C(=O)N[C@H](Cc1c[nH]c2ccccc12)C(=O)N[C@@H](CO)C(=O)N[C@@H](CCN)C(=O)N[C@H](CCN)C(=O)N[C@@H](C)C(=O)N[C@@H](CCC(=O)O)C(=O)N[C@H](C(=O)N[C@@H](C(=O)N[C@@H](C)C(=O)O)[C@@H](C)CC)C(C)C)C(C)C [Oct-Ala9] (Octanoyl-[dV][dDab]G[dS][dW]S[Dab][dDab]AEV[d(aIle)]A-OH) on P. aeruginosa 1226072; MIC returned: 32 µg/mL

* * *

- System: E. faecium ATCC 51559
- Assay type: cell-based, Enterococcus faecium
- statedConditions: ATCC 51559, 20 h
Where a SMILES comes first, the peptide text is derived from it. [ ]: non-standard residue; d: D form. The star is where a group is joined. d(aIle) = CC[C@H](C)[C@@H](N)C(=O)O; dDab = NCC[C@@H](N)C(=O)O; Octanoyl = CCCCCCCC(=O)*; Dab = NCC[C@H](N)C(=O)O
observable: MIC
Form entry: enter the amount, then its unit.

These solved cases illustrate the format of a correct answer.
CCCCCCCC(=O)N[C@@H](C(=O)N[C@H](CCN)C(=O)NCC(=O)N[C@H](CO)C(=O)N[C@H](Cc1c[nH]c2ccccc12)C(=O)N[C@@H](CO)C(=O)N[C@@H](CCN)C(=O)N[C@H](CCN)C(=O)N[C@H](C(=O)N[C@@H](CCC(=O)O)C(=O)N[C@H](C(=O)N[C@@H](C(=O)N[C@@H](C)C(=O)O)[C@@H](C)CC)C(C)C)C(C)C)C(C)C [Oct-Val9] (Octanoyl-[dV][dDab]G[dS][dW]S[Dab][dDab]VEV[d(aIle)]A-OH)	64 µg/mL
CCCCCCCC(=O)N[C@@H](C(=O)N[C@H](CCN)C(=O)NCC(=O)N[C@H](CO)C(=O)N[C@H](Cc1c[nH]c2ccccc12)C(=O)N[C@@H](CO)C(=O)N[C@@H](CCN)C(=O)N[C@H](CCN)C(=O)N[C@@H](Cc1ccccc1)C(=O)N[C@@H](CCC(=O)O)C(=O)N[C@H](C(=O)N[C@@H](C(=O)N[C@@H](C)C(=O)O)[C@@H](C)CC)C(C)C)C(C)C [Oct-TriA1] (Octanoyl-[dV][dDab]G[dS][dW]S[Dab][dDab]FEV[d(aIle)]A-OH)	32 µg/mL

Next:
Entry CCCCCCCC(=O)N[C@@H](C(=O)N[C@H](CCN)C(=O)NCC(=O)N[C@H](CO)C(=O)N[C@H](Cc1c[nH]c2ccccc12)C(=O)N[C@@H](CO)C(=O)N[C@@H](CCN)C(=O)N[C@H](CCN)C(=O)N[C@@H](Cc1c[nH]c2ccccc12)C(=O)N[C@@H](CCC(=O)O)C(=O)N[C@H](C(=O)N[C@@H](C(=O)N[C@@H](C)C(=O)O)[C@@H](C)CC)C(C)C)C(C)C [Oct-TriA5] (Octanoyl-[dV][dDab]G[dS][dW]S[Dab][dDab]WEV[d(aIle)]A-OH) , MIC reported as 8 µg/mL

* * *

- Test system: S. aureus 1126387
- Type: cell-based, Staphylococcus aureus
- statedConditions: 1126387, 20 h
Where a SMILES comes first, the peptide text is derived from it. [ ]: non-standard residue; d: D form. The star is where a group is joined. d(aIle) = CC[C@H](C)[C@@H](N)C(=O)O; dDab = NCC[C@@H](N)C(=O)O; Octanoyl = CCCCCCCC(=O)*; Dab = NCC[C@H](N)C(=O)O
observable: MIC (µg/mL)
Dear colleague, please return just the value in µg/mL, with no unit written.

CCCCCCCC(=O)N[C@H](Cc1ccccc1)C(=O)N[C@H](CCN)C(=O)N[C@@H](C(=O)N[C@H](CO)C(=O)N[C@H](Cc1c[nH]c2ccccc12)C(=O)N[C@@H](CO)C(=O)N[C@@H](CO)C(=O)N[C@H](CCN)C(=O)N[C@@H](Cc1c[nH]c2ccccc12)C(=O)N[C@@H](CO)C(=O)N[C@H](C(=O)N[C@@H](C(=O)N[C@@H](CCN)C(=O)O)[C@@H](C)CC)C(C)C)[C@H](C)CC [Oct-TriD] (Octanoyl-[dF][dDab][dI][dS][dW]SS[dDab]WSV[d(aIle)][Dab]-OH)	16

Next:
Entry CCCCCCCC(=O)N[C@@H](C(=O)N[C@H](CCN)C(=O)NCC(=O)N[C@H](CO)C(=O)N[C@H](Cc1c[nH]c2ccccc12)C(=O)N[C@@H](CO)C(=O)N[C@@H](CCN)C(=O)N[C@H](CCN)C(=O)N[C@@H](Cc1ccccc1)C(=O)N[C@@H](CCC(=O)O)C(=O)N[C@H](C(=O)N[C@@H](C(=O)N[C@@H](C)C(=O)O)[C@@H](C)CC)C(C)C)C(C)C [Oct-TriA1] (Octanoyl-[dV][dDab]G[dS][dW]S[Dab][dDab]FEV[d(aIle)]A-OH) , MIC reported as 32

* * *

- Test system: P. aeruginosa 1226072
- Assay type: cell-based, Pseudomonas aeruginosa
- statedConditions: 1226072, 20 h
Where a SMILES comes first, the peptide text is derived from it. [ ]: non-standard residue; d: D form. The star is where a group is joined. d(aIle) = CC[C@H](C)[C@@H](N)C(=O)O; dDab = NCC[C@@H](N)C(=O)O; Octanoyl = CCCCCCCC(=O)*; Dab = NCC[C@H](N)C(=O)O
observable: MIC (mg/L)
Dear colleague, please return just the value in mg/L, with no unit written.

CCCCCCCC(=O)N[C@@H](C(=O)N[C@H](CCN)C(=O)NCC(=O)N[C@H](CO)C(=O)N[C@H](Cc1c[nH]c2ccccc12)C(=O)N[C@@H](CO)C(=O)N[C@@H](CCN)C(=O)N[C@H](CCN)C(=O)N[C@@H](Cc1ccccc1)C(=O)N[C@@H](CCC(=O)O)C(=O)N[C@H](C(=O)N[C@@H](C(=O)N[C@@H](C)C(=O)O)[C@@H](C)CC)C(C)C)C(C)C [Oct-TriA1] (Octanoyl-[dV][dDab]G[dS][dW]S[Dab][dDab]FEV[d(aIle)]A-OH)	8

Next:
Query CCCCCCCC(=O)N[C@@H](C(=O)N[C@H](CCN)C(=O)NCC(=O)N[C@H](CO)C(=O)N[C@H](Cc1c[nH]c2ccccc12)C(=O)N[C@@H](CO)C(=O)N[C@@H](CCN)C(=O)N[C@H](CCN)C(=O)N[C@H](C(=O)N[C@@H](CCC(=O)O)C(=O)N[C@H](C(=O)N[C@@H](C(=O)N[C@@H](C)C(=O)O)[C@@H](C)CC)C(C)C)C(C)C)C(C)C [Oct-Val9] (Octanoyl-[dV][dDab]G[dS][dW]S[Dab][dDab]VEV[d(aIle)]A-OH) on P. aeruginosa 1226072; MIC returned: 16

* * *

- Tested on: K. pneumoniae 1228586
- Format: cell-based, Klebsiella pneumoniae
- statedConditions: 1228586, 20 h
Where a SMILES comes first, the peptide text is derived from it. [ ]: non-standard residue; d: D form. The star is where a group is joined. d(aIle) = CC[C@H](C)[C@@H](N)C(=O)O; dDab = NCC[C@@H](N)C(=O)O; Octanoyl = CCCCCCCC(=O)*; Dab = NCC[C@H](N)C(=O)O
Overview of recorded MIC for various molecules
Dear colleague, please return just the value in mg/L, with no unit written.

These solved cases illustrate the format of a correct answer.
CCCCCCCC(=O)N[C@@H](C(=O)N[C@H](CCN)C(=O)NCC(=O)N[C@H](CO)C(=O)N[C@H](Cc1c[nH]c2ccccc12)C(=O)N[C@@H](CO)C(=O)N[C@@H](CCN)C(=O)N[C@H](CCN)C(=O)N[C@@H](Cc1ccccc1)C(=O)N[C@@H](CCC(=O)O)C(=O)N[C@H](C(=O)N[C@@H](C(=O)N[C@@H](C)C(=O)O)[C@@H](C)CC)C(C)C)C(C)C [Oct-TriA1] (Octanoyl-[dV][dDab]G[dS][dW]S[Dab][dDab]FEV[d(aIle)]A-OH)	4
CCCCCCCC(=O)N[C@@H](C(=O)N[C@H](CCN)C(=O)NCC(=O)N[C@H](CO)C(=O)N[C@H](Cc1c[nH]c2ccccc12)C(=O)N[C@@H](CO)C(=O)N[C@@H](CCN)C(=O)N[C@H](CCN)C(=O)N[C@@H](Cc1c[nH]cn1)C(=O)N[C@@H](CCC(=O)O)C(=O)N[C@H](C(=O)N[C@@H](C(=O)N[C@@H](C)C(=O)O)[C@@H](C)CC)C(C)C)C(C)C [Oct-His9] (Octanoyl-[dV][dDab]G[dS][dW]S[Dab][dDab]HEV[d(aIle)]A-OH)	8

Entry CCCCCCCC(=O)N[C@@H](C(=O)N[C@H](CCN)C(=O)NCC(=O)N[C@H](CO)C(=O)N[C@H](Cc1c[nH]c2ccccc12)C(=O)N[C@@H](CO)C(=O)N[C@@H](CCN)C(=O)N[C@H](CCN)C(=O)N[C@H](C(=O)N[C@@H](CCC(=O)O)C(=O)N[C@H](C(=O)N[C@@H](C(=O)N[C@@H](C)C(=O)O)[C@@H](C)CC)C(C)C)[C@@H](C)CC)C(C)C [Oct-Ile9] (Octanoyl-[dV][dDab]G[dS][dW]S[Dab][dDab]IEV[d(aIle)]A-OH) , MIC reported as 4
